Target: MAP2K3 (human)
Assay: KINOMEscan competition binding
Settings: compound 10.0 µM
Measurement name: kinase still bound, per cent of control
Provide a numeric answer, followed by its unit.

[ask] kinase still bound, per cent of control lookup needed for CN1C(=N)NC(=O)/C1=C/c1ccc(-c2ccc(S(N)(=O)=O)cc2)o1 , thanks.
[reply] 11%

[ask] Now try N=C1NC(=O)/C(=C/c2c[nH]c(=O)c(-c3ccc(S(N)(=O)=O)cc3)c2)S1 .
[reply] 2.2%

[ask] What do you have for N=C1NC(=O)/C(=C/c2ccc(-c3ccc(Cl)cc3)o2)S1 ?
[reply] 5.6%

[ask] Subsequent entry: CS(=O)(=O)Nc1ccc(-c2ccc(/C=C3\SC(=N)NC3=O)o2)cc1
[reply] 7.8%

[ask] How about this molecule: COc1cc(N2CCN(C)CC2)ccc1Nc1ncc2c(n1)N1CCC[C@H]1CC(=O)N2C
[reply] 0.4%

[ask] Thanks! And O=C1NC(=O)/C(=C/c2c[nH]c(=O)c(-c3ccc(N4CCNCC4)nc3)c2)S1 ?
[reply] 65%

[ask] // same read-out, input: N=C1NC(=O)/C(=C/c2ccc(-c3ccc(F)cc3)o2)S1
[reply] 5.8%

[ask] Query COc1cc(N2CCN(C)CC2)ccc1Nc1ncc2c(n1)N(C)c1ccccc1N(C)C2=O next
[reply] 92%

[ask] Let us now turn to N=C1NC(=O)/C(=C/c2ccc(-c3ccc(C(=O)Nc4ccc(N5CCNCC5)cc4)cc3O)o2)S1
[reply] 30%

[ask] Query NS(=O)(=O)c1ccc(-c2ccc(/C=C3\SC(=O)NC3=O)o2)cc1 next
[reply] 34%

[ask] Query COc1cc(N2CCN(C)CC2)ccc1Nc1ncc2c(n1)N(C)c1sccc1C(=O)N2C next
[reply] 39%

[ask] Again, but for N=C1NC(=O)/C(=C/c2cccc(-c3ccc(S(N)(=O)=O)cc3)c2)S1
[reply] 24%

[ask] Repeat for the following molecule: N=C1NC(=O)/C(=C/c2ccc(-c3csc4ccccc34)o2)S1
[reply] 20%

[ask] CS(=O)(=O)Nc1ccc(-c2cncc(/C=C3\SC(=N)NC3=O)c2)cc1 , same question.
[reply] 16%

[ask] Also Cc1cn(-c2cc(NC(=O)c3cccc4cc(-c5ccc(/C=C6\SC(=N)NC6=O)o5)ccc34)cc(C(F)(F)F)c2)cn1 ?
[reply] 20%

[ask] Okay, and O=C1NC(=O)C(=Cc2ccc(-c3ccc([N+](=O)[O-])cc3)o2)C(=O)N1 ?
[reply] 15%

[ask] Request: CSC1=NC(=O)/C(=C/c2c[nH]c(=O)c(-c3ccc(NS(C)(=O)=O)cc3)c2)S1
[reply] 29%

[ask] Same read-out for CN(C)C1=NC(=O)/C(=C/c2ccc(-c3ccc(S(N)(=O)=O)cc3)o2)S1 ?
[reply] 16%

[ask] Queued: COc1cc(N2CCN(C)CC2)ccc1Nc1ncc2c(n1)Nc1ccccc1NC2=O
[reply] 88%

[ask] Would you mind doing CN1C(=O)c2ccccc2N(C)c2nc(NS(=O)(=O)c3ccc(N)cc3)ncc21 as well?
[reply] 74%
